test: Storage stability of the gel formulation containing calcipotriol and betamethasone dipropionate; type: physicochemical; details: gel formulation of Example 1; 40° C. 1 month; content of BDP

{"columns": ["compound", "BDP Kvant."],
 "data": [
  ["CCC(=O)OCC(=O)[C@@]1(OC(=O)CC)[C@@H](C)C[C@H]2[C@@H]3CCC4=CC(=O)C=C[C@]4(C)[C@@]3(F)[C@@H](O)C[C@@]21C [BDP, betamethasone dipropionate]", "0.634 mg/g"]
]}

----------
assay: Storage stability of the gel formulation containing calcipotriol and betamethasone dipropionate; format: physicochemical; details: gel formulation of Example 1; 40° C. 3 months; content of BDP

{"columns": ["molecule", "BDP Kvant. / mg/g"],
 "data": [
  ["CCC(=O)OCC(=O)[C@@]1(OC(=O)CC)[C@@H](C)C[C@H]2[C@@H]3CCC4=CC(=O)C=C[C@]4(C)[C@@]3(F)[C@@H](O)C[C@@]21C [BDP, betamethasone dipropionate]", 0.642]
]}
